Where do the numbers come from? From ChEMBL document CHEMBL4689842.

- Test system: HEK-293T
- assayInfo: Multiplex assay against HEK293T
- Assay type: toxicity, cell-based
- assayContext: human, 24 h, 1 µM, compound concentration 1 uM, replicate 1
Entries and their Population Apoptotic (%) values follow.
Report the value in % with no unit label.

Below: 6 compounds and their reported Population Apoptotic (%).
N#Cc1cccc(C(=O)Nc2cc(-c3ccccc3)nn2-c2ccccc2)c1    45
CCCCN(CC)c1nc(C)nc2c1c(C)cn2-c1c(C)cc(C)cc1C.Cl    48
Cl.NC[C@@H]1O[C@H](C23CC4CC(CC(C4)C2)C3)Cc2c1ccc(O)c2O    34
CC[C@H](Nc1ncnc2[nH]cnc12)c1nc2cccc(F)c2c(=O)n1-c1ccccc1 [IDELALISIB]    17
CN1C(=O)[C@@H](NC(=O)c2cc3ccccc3[nH]2)N=C(c2ccccc2)c2ccccc21 [DEVAZEPIDE]    48
CC(Cc1ccc(O)c(O)c1)C(C)Cc1ccc(O)c(O)c1 (stereo not drawn) [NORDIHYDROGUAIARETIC ACID]    35

Next compound, please.
Enquiry: Item under review: CC(C)[C@H](CO)Nc1nc(Nc2cccc(Cl)c2)c2ncn(C(C)C)c2n1 [PURVALANOLA] . Reported Population Apoptotic (%)?
Return: 42

----------
- Tested on: HEK-293T
- assayInfo: Multiplex assay against HEK293T
- Type: toxicity, cell-based
- assayContext: human, 12 h, 1 µM, compound concentration 1 uM, replicate 2
valueType: Population Mitochondria Different-Phenotype (%)
Report the value in % with no unit label.

Below: 5 molecules and their reported Population Mitochondria Different-Phenotype (%).
CC[C@@H]1C(=O)N(C)c2cnc(Nc3ccc(C(=O)NC4CCN(C)CC4)cc3OC)nc2N1C1CCCC1    28
N#Cc1cccc(C(=O)Nc2cc(-c3ccccc3)nn2-c2ccccc2)c1    23
CC[C@H](Nc1ncnc2[nH]cnc12)c1nc2cccc(F)c2c(=O)n1-c1ccccc1    18
CC(Cc1ccc(O)c(O)c1)C(C)Cc1ccc(O)c(O)c1 (configuration not stated) [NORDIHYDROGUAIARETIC ACID]    28
N#CCNC(=O)c1ccc(-c2ccnc(Nc3ccc(N4CCOCC4)cc3)n2)cc1    9

Enquiry: Item under review: Oc1cccc(-c2nc(N3CCOCC3)c3oc4ncccc4c3n2)c1 . Reported Population Mitochondria Different-Phenotype (%)?
Return: 68

Enquiry: Quick one: Cl.NC[C@@H]1O[C@H](C23CC4CC(CC(C4)C2)C3)Cc2c1ccc(O)c2O
Return: 38

----------
- Test system: U2OS
- assayInfo: Multiplex assay against U2OS
- Format: toxicity, cell-based
- assayContext: human, 12 h, 10 µM, compound concentration 10 uM, replicate 2
valueType: Population Mitochondria Different-Phenotype (%)
Report the value in % with no unit label.

CC[C@@H]1C(=O)N(C)c2cnc(Nc3ccc(C(=O)NC4CCN(C)CC4)cc3OC)nc2N1C1CCCC1 [BI-2536]    94

Enquiry: Item under review: CC(C)[C@H](CO)Nc1nc(Nc2cccc(Cl)c2)c2ncn(C(C)C)c2n1 [PURVALANOLA] . Reported Population Mitochondria Different-Phenotype (%)?
Return: 95

Enquiry: Quick one: c1ccc(-c2oc3ncnc(NC[C@@H]4CCCO4)c3c2-c2ccccc2)cc1
Return: 56

Enquiry: Quick one: CCCCN(CC)c1nc(C)nc2c1c(C)cn2-c1c(C)cc(C)cc1C.Cl
Return: 55

Enquiry: Quick one: CN1C(=O)[C@@H](NC(=O)c2cc3ccccc3[nH]2)N=C(c2ccccc2)c2ccccc21 [DEVAZEPIDE]
Return: 48

Enquiry: Quick one: Cc1c(P(=S)(c2ccccc2)c2ccccc2)n2ccccc2[n+]1C/C=C/c1ccccc1.[Br-]
Return: 83

Enquiry: Quick one: C=CC(=O)Nc1cc(-n2c(=O)ccc3cnc4ccc(-c5ccc(NS(C)(=O)=O)cc5)cc4c32)ccc1C
Return: 56

Enquiry: Quick one: Cc1ccc(NC(=O)Nc2cc(C(F)(F)F)ccc2F)cc1Nc1ccc2c(c1)NC(=O)/C2=C\c1ccc[nH]1
Return: 29

----------
- System: U2OS
- assayInfo: Multiplex assay against U2OS
- Format: toxicity, cell-based
- assayContext: human, 12 h, 1 µM, compound concentration 1 uM, replicate 2
valueType: Population Healthy Nuclei (%)
Report the value in % with no unit label.

Below: 3 compounds and their reported Population Healthy Nuclei (%).
CC(C)[C@H](CO)Nc1nc(Nc2cccc(Cl)c2)c2ncn(C(C)C)c2n1    88
Cc1c(Nc2ccc(S(=O)(=O)N3CCN(C)CC3)cc2F)nc2ccc(-c3cnn(C4CC4)c3)cn2c1=O    93
Cc1c(P(=S)(c2ccccc2)c2ccccc2)n2ccccc2[n+]1C/C=C/c1ccccc1.[Br-]    45

Enquiry: Report Population Healthy Nuclei (%) for C=CC(=O)Nc1cc(-n2c(=O)ccc3cnc4ccc(-c5ccc(NS(C)(=O)=O)cc5)cc4c32)ccc1C tested on U2OS.
Return: 77

Enquiry: Quick one: CN1C(=O)[C@@H](NC(=O)c2cc3ccccc3[nH]2)N=C(c2ccccc2)c2ccccc21 [DEVAZEPIDE]
Return: 85

----------
Entries and their Population Pyknosed Nuclei (%) values follow.
- Tested on: Fibroblast
- assayInfo: Multiplex assay against human fibroblast
- Format: toxicity, cell-based
- assayContext: 48 h, 10 µM, compound concentration 10 uM, replicate 2
Report the value in % with no unit label.

Below: 3 compounds and their reported Population Pyknosed Nuclei (%).
Cl.NC[C@@H]1O[C@H](C23CC4CC(CC(C4)C2)C3)Cc2c1ccc(O)c2O    1
CC(C)[C@H](CO)Nc1nc(Nc2cccc(Cl)c2)c2ncn(C(C)C)c2n1    2
CCCc1cc(C)[nH]c(=O)c1CNC(=O)c1cc(-c2ccc(N3CCN(C(C)C)CC3)nc2)cc2c1cnn2C(C)C    35

Enquiry: Item under review: CN(c1cc(C(F)(F)F)nc(OCCC(=O)O)n1)c1cccc2c1CCC2 . Reported Population Pyknosed Nuclei (%)?
Return: 4

Enquiry: Quick one: Cc1ccc(S(=O)(=O)NC2c3ccccc3Oc3ccccc32)cc1
Return: 6

Enquiry: Quick one: CC(/C=C1\SC(=S)N(CCCC(=O)Nc2ccc(C(=O)O)c(O)c2)C1=O)=C\c1ccccc1
Return: 4

Enquiry: Quick one: N#Cc1cccc(C(=O)Nc2cc(-c3ccccc3)nn2-c2ccccc2)c1
Return: 9

Enquiry: Quick one: Cc1c(Nc2ccc(S(=O)(=O)N3CCN(C)CC3)cc2F)nc2ccc(-c3cnn(C4CC4)c3)cn2c1=O
Return: 3

Enquiry: Quick one: CCCCN(CC)c1nc(C)nc2c1c(C)cn2-c1c(C)cc(C)cc1C.Cl
Return: 3

----------
- Tested on: HEK-293T
- assayInfo: Multiplex assay against HEK293T
- Format: toxicity, cell-based
- assayContext: human, 12 h, 10 µM, compound concentration 10 uM, replicate 1
valueType: Population Mitotic Cells (%)
Report the value in % with no unit label.

Below: 3 compounds and their reported Population Mitotic Cells (%).
CC(C)C[C@H](NC(=O)[C@H](Cc1ccccc1)NC(=O)CNC(=O)CNC(=O)[C@@H](N)Cc1ccc(O)cc1)C(=O)O    60
CCOc1ccn(-c2ccc(F)cc2)c(=O)c1C(=O)Nc1ccc(Oc2ccnc(N)c2Cl)c(F)c1    76
CC(/C=C1\SC(=S)N(CCCC(=O)Nc2ccc(C(=O)O)c(O)c2)C1=O)=C\c1ccccc1    59

Next compound, please.
Enquiry: Item under review: CCOC(=O)CCNc1cc(N2CCc3ccccc3CC2)nc(-c2ccccn2)n1 . Reported Population Mitotic Cells (%)?
Return: 77

----------
Entries and their Population Hoechst High Intensity Objects (%) values follow.
- System: HEK-293T
- assayInfo: Multiplex assay against HEK293T
- Type: toxicity, cell-based
- assayContext: human, 12 h, 1 µM, compound concentration 1 uM, replicate 1
Report the value in % with no unit label.

N#CCNC(=O)c1ccc(-c2ccnc(Nc3ccc(N4CCOCC4)cc3)n2)cc1    12
CC(/C=C1\SC(=S)N(CCCC(=O)Nc2ccc(C(=O)O)c(O)c2)C1=O)=C\c1ccccc1    9
CCOC(=O)CCNc1cc(N2CCc3ccccc3CC2)nc(-c2ccccn2)n1    9

Enquiry: Item under review: N#Cc1cccc(C(=O)Nc2cc(-c3ccccc3)nn2-c2ccccc2)c1 . Reported Population Hoechst High Intensity Objects (%)?
Return: 13

Enquiry: Quick one: CC(C)c1cc(Nc2nc(N3CCC[C@H](N)C3)ncc2C(N)=O)cc(C(C)C)n1
Return: 11

Enquiry: Quick one: Cc1c(Nc2ccc(S(=O)(=O)N3CCN(C)CC3)cc2F)nc2ccc(-c3cnn(C4CC4)c3)cn2c1=O
Return: 9

Enquiry: Quick one: CCCc1cc(C)[nH]c(=O)c1CNC(=O)c1cc(-c2ccc(N3CCN(C(C)C)CC3)nc2)cc2c1cnn2C(C)C
Return: 13

Enquiry: Quick one: NC(=O)c1ccc2nc(-c3ccc(C4(N)CCC4)cc3)c(-c3ccccc3)n2n1
Return: 16

Enquiry: Quick one: C[C@@H](Oc1cc(-n2cnc3ccc(CN4CCN(C)CC4)cc32)sc1C(N)=O)c1ccccc1C(F)(F)F
Return: 17

Enquiry: Quick one: COc1cc(Nc2ccnc3ccc(Br)cc23)cc(OC)c1OC
Return: 16

Enquiry: Quick one: Cl.Cn1c2c(c3ccc(Cl)c(Cl)c31)C(C#N)C1(CCNCC1)NC2=O (stereo unspecified)
Return: 10
